# Tested on: OVCAR-3
# ASSAY_INFO: NCI tumour cell line growth inhibition, 48 h
Calls of active or inactive are those of the source. No stated cut-off is given here; in the data, active = GI50 up to about 1.1 µM and inactive = higher.
Outcomes: YES for active, NO for inactive

COMPOUND: CC(=O)OCC1OC(Oc2cc(C)c(O)cc2C/C=C(\C)CC/C=C(\C)CC(=O)CC(C)C)C(O)C(OC(C)=O)C1OC(C)=O (centres undefined)
TARGET_UNDER_TEST: OVCAR-3
CLASSIFICATION: NO
//
COMPOUND: CCN(CC)CCN1C(=O)CC2[C@@H]3CCc4cc(OC)ccc4C3CC[C@]2(C)C1=O (some centres undefined)
TARGET_UNDER_TEST: OVCAR-3
CLASSIFICATION: NO
//
COMPOUND: CN(C)c1ccc(/C=C(\NC(=O)c2ccccc2)C(=O)Nc2ccccc2C(=O)NN2C(=O)CSC2c2ccc(N(C)C)cc2)cc1 (centres undefined)
TARGET_UNDER_TEST: OVCAR-3
CLASSIFICATION: NO
//
COMPOUND: CC[C@H]1CN2CCc3cc(OC)c(OC)cc3[C@@H]2C[C@@H]1C[C@H]1NCCc2cc(O)c(OC)cc21
TARGET_UNDER_TEST: OVCAR-3
CLASSIFICATION: YES
//
COMPOUND: Cc1ccc(C(=O)/C=C/c2ccccc2O)c(C)c1
TARGET_UNDER_TEST: OVCAR-3
CLASSIFICATION: NO
//
COMPOUND: Nc1nc(N)c2c(n1)CCC(S(=O)(=O)c1ccc3ccccc3c1)C2 (centres undefined)
TARGET_UNDER_TEST: OVCAR-3
CLASSIFICATION: NO
//
COMPOUND: O=S1(=O)CC#CC[C@@H](CO)[C@@H](CO)CC#CC1
TARGET_UNDER_TEST: OVCAR-3
CLASSIFICATION: NO
//
COMPOUND: CN(C)CCn1c(CO)nc2c1c(=O)n(C)c(=O)n2C
TARGET_UNDER_TEST: OVCAR-3
CLASSIFICATION: NO
//
COMPOUND: O=C1C(Cl)C(c2cc3cc(Br)ccc3nc2Cl)N1c1ccc(F)c(Cl)c1 (centres undefined)
TARGET_UNDER_TEST: OVCAR-3
CLASSIFICATION: NO

----------
# Tested on: OVCAR-5
# ASSAY_INFO: NCI tumour cell line growth inhibition, 48 h
The source made the active and inactive calls. No stated cut-off is given here; in the data, active = GI50 up to about 1.1 µM and inactive = higher.

COMPOUND: O=C1C2C3C=C4c5ccccc5N(c5ccccc5)C4(C2C(=O)N1Cc1ccccc1)C1C(=O)N(Cc2ccccc2)C(=O)C31 (stereo not given)
GI50: > 100 µM (inactive)

COMPOUND: O=C(/C=C(O)/C(=C/C(=O)c1ccccc1)NN=C(c1ccccc1)c1ccccc1)c1ccccc1
GI50: > 100 µM (inactive)

COMPOUND: N=C(N)c1ccc(/N=N\c2c(O)ccc3c2[nH]c2ccccc23)cc1
GI50: 41.5 µM (inactive)

COMPOUND: Cc1cccc(C)c1NC(=O)Nc1ccc(S(N)(=O)=O)cc1
GI50: > 100 µM (inactive)

COMPOUND: CCCCCCSc1nc(N)nc2nc[nH]c12
GI50: 41.2 µM (inactive)

----------
# System: IGROV-1
# ASSAY_INFO: NCI tumour cell line growth inhibition, 48 h
Calls of active or inactive are those of the source. Cut-off read from the data, not from the text of the source: active = GI50 up to about 1.1 µM and inactive = higher.
RECORDED_ENDPOINT: GI50

COMPOUND: CC(C)C(C=O)C(O)(C(F)(F)F)C(F)(F)F (stereo not given)
REPORTED_VALUE: > 10 µM (inactive)

COMPOUND: O=C1c2c(ccc3c2CCC3)CC1Cc1ccc2c(c1)CCC2 (stereo not given)
REPORTED_VALUE: 28.6 µM (inactive)

COMPOUND: N=C(N)NC1C(O)C(O)C(O)C(NC(=N)N)C1O (stereo not given)
REPORTED_VALUE: > 100 µM (inactive)

COMPOUND: CCN(c1cccc(NC(=S)Nc2ccccc2N(CC)c2cc(-c3ccccc3)no2)c1)c1cc(-c2ccccc2)no1
REPORTED_VALUE: > 100 µM (inactive)

COMPOUND: COc1ccc(/C=C2\C[C@H]3[C@@H]4CCC5=C/C(=N/O)CC[C@]5(C)[C@H]4CC[C@]3(C)\C2=N\O)cc1OC
REPORTED_VALUE: 47.4 µM (inactive)

COMPOUND: CN(C)CCC1(C2=CCCC2)CC/C(=C\c2ccc(Cl)cc2)C1=O (stereo not given)
REPORTED_VALUE: 7.14 µM (inactive)

COMPOUND: CN1C(=O)C(=CNc2ccccc2[N+](=O)[O-])C(=O)N(C)C1=O
REPORTED_VALUE: > 100 µM (inactive)

COMPOUND: O=C(O)CO/N=C1/C(=C2/C(=O)Nc3ccccc32)Nc2ccccc21
REPORTED_VALUE: 22.9 µM (inactive)

COMPOUND: CC(NNC(=O)c1ccncc1)c1ccc(Cl)cc1Cl (stereo not given)
REPORTED_VALUE: > 100 µM (inactive)

COMPOUND: COc1cc(OC)c(-c2ccc(OCc3ccccc3)c3c(OC)cc(C)cc23)c2c1C(C)=N[C@H](C)C2
REPORTED_VALUE: 1.87 µM (inactive)

COMPOUND: C=C(Cl)Cc1c(O)c2c(c(O)c1CC(=C)Cl)C(=O)c1ccccc1C2=O
REPORTED_VALUE: > 100 µM (inactive)

COMPOUND: O=C(CNc1ccc2c(=S)c3ccccc3[nH]c2c1)Nc1ccccc1-c1ccccc1NC(=O)CNc1ccc2c(=S)c3ccccc3[nH]c2c1
REPORTED_VALUE: 20.2 µM (inactive)

COMPOUND: O=C(NCC(C(=O)OCc1ccccc1)C(=O)OCc1ccccc1)OCc1ccccc1
REPORTED_VALUE: > 100 µM (inactive)

COMPOUND: COC1OC(COCc2ccc(Cl)cc2)C(OCc2ccc(Cl)cc2)C1O (stereo not given)
REPORTED_VALUE: 22.8 µM (inactive)

COMPOUND: Nc1nc(N)c2nn(-c3ccc(C(=O)O)cc3)nc2n1
REPORTED_VALUE: > 100 µM (inactive)

COMPOUND: Sc1cnnc2ccc(Br)cc12
REPORTED_VALUE: 48.1 µM (inactive)

COMPOUND: CN(C)CCCNC(=O)CCNC(=O)c1cc(NC(=O)c2cc(NC(=O)c3cc(NC(=O)CCCNC(=O)c4cc(NC(=O)c5cc(NC(=O)c6nccn6C)cn5C)cn4C)cn3C)cn2C)cn1C
REPORTED_VALUE: > 100 µM (inactive)

COMPOUND: C=CCCCn1ccc2ccccc21
REPORTED_VALUE: > 100 µM (inactive)

COMPOUND: Cc1ccnc2nc(N)ccc12
REPORTED_VALUE: > 100 µM (inactive)

COMPOUND: O=C(NNC(=S)Nc1ccc(Br)cc1)c1cc(-c2ccccc2)nc2ccccc12
REPORTED_VALUE: 37.8 µM (inactive)

COMPOUND: COc1ccc(C2(CC(C)C)CCNC2)cc1OC (stereo not given)
REPORTED_VALUE: 26.5 µM (inactive)

COMPOUND: O=C(O)C(O)Cc1ccccn1 (stereo not given)
REPORTED_VALUE: > 100 µM (inactive)

COMPOUND: CC1(C)CN=C(Nc2ccc(F)cc2)S1
REPORTED_VALUE: > 100 µM (inactive)

COMPOUND: CCOC1OC(CO)C(O)CC1n1ccc(=O)[nH]c1=O (stereo not given)
REPORTED_VALUE: > 100 µM (inactive)

COMPOUND: COC(=O)/C=C1\C(=O)N(C(C)=O)c2ccccc21
REPORTED_VALUE: 7.87 µM (inactive)

COMPOUND: CC(C)(C)[C@@H]1NC(=O)CN1C(=O)OCc1ccccc1
REPORTED_VALUE: > 100 µM (inactive)

COMPOUND: O=C(N/N=C1\C(=O)Nc2c(Cl)cc(Cl)cc21)C(=O)Nc1cccc(C(F)(F)F)c1
REPORTED_VALUE: > 100 µM (inactive)

COMPOUND: O=C(C1OC1c1ccc(Br)cc1O)C12CC3CC(CC(C3)C1)C2 (stereo not given)
REPORTED_VALUE: 32 µM (inactive)

COMPOUND: COC1(CC[C@H](C)COC2OC(CO)C(O)C(O)C2O)O[C@H]2C[C@H]3[C@@H]4CC=C5C[C@@H](OC6OC(CO)C(O)C(OC7OC(CO)C(O)C(O)C7O)C6OC6OC(C)C(O)C(O)C6O)CC[C@]5(C)[C@H]4CC[C@]3(C)[C@H]2[C@@H]1C (stereo not given in full)
REPORTED_VALUE: 3.73 µM (inactive)

COMPOUND: CC(=O)O.CN1CCN(CN2C(=O)C3C4C=CC(C3C2=O)C2C3C(=O)N(CN5CCN(C)CC5)C(=O)C3C42)CC1 (stereo not given)
REPORTED_VALUE: 35.5 µM (inactive)

COMPOUND: CC(=O)Oc1ccc(C(c2ccc(OC(C)=O)cc2)c2ccccn2)cc1
REPORTED_VALUE: 71.6 µM (inactive)

COMPOUND: N#CC(C(=O)/C(=N/N)C(C#N)c1ccc(Cl)cc1)c1ccc(Cl)cc1 (stereo not given)
REPORTED_VALUE: > 100 µM (inactive)

COMPOUND: Cn1c2c(c3ccccc3c1=O)C(=O)c1ccccc1-2
REPORTED_VALUE: > 100 µM (inactive)

COMPOUND: CC/C(Cl)=N\OC(=O)Nc1ccc(F)cc1F
REPORTED_VALUE: 15.9 µM (inactive)

COMPOUND: Cc1cc(C)c2c(=O)n(CC(O)CN(Cc3ccccc3)CC(O)Cn3sc4nc(C)cc(C)c4c3=O)sc2n1 (stereo not given)
REPORTED_VALUE: 17.7 µM (inactive)

COMPOUND: CC(=O)C1=C(C)N2C(=NC3=C(CCc4ccccc43)C2c2cccc(Br)c2)S1 (stereo not given)
REPORTED_VALUE: 48.2 µM (inactive)

COMPOUND: Cn1c(N)nc(-c2ccc(Cl)cc2)c1SSc1c(-c2ccc(Cl)cc2)nc(N)n1C
REPORTED_VALUE: 2.99 µM (inactive)

COMPOUND: CN(C)CCOc1cc2c(c3ccccc13)-c1ccccc1C2=O
REPORTED_VALUE: 1.88 µM (inactive)

COMPOUND: O=C1Nc2ccccc2/C1=N/NS(=O)(=O)c1ccc(C(=O)O)cc1
REPORTED_VALUE: > 100 µM (inactive)

COMPOUND: Cc1ccc(NC(=O)/C(=N/NC(=O)CC#N)C2C(=O)N(c3ccccc3)N=C2N)cc1C (stereo not given)
REPORTED_VALUE: > 100 µM (inactive)

Cited source for all entries: ChEMBL document CHEMBL1201862
